Test system: NCI-H1734
Experiment: relative viability (nuclei count vs DMSO), 5 days (fraction); higher = more cells survive
Details: first compound 0.06325 µM
The entries below come with measured relative viability values attached.
Output spec: single numeric token, no unit.

| compound | relative viability |
| --- | --- |
| CCNC(=O)c1noc(-c2cc(C(C)C)c(O)cc2O)c1-c1ccc(CN2CCOCC2)cc1 [Luminespib] + Cc1cc(Nc2cc(N3CCN(C)CC3)nc(Sc3ccc(NC(=O)C4CC4)cc3)n2)n[nH]1 [Tozasertib] (partner 0.1 µM) | 0.143 |

Proceeding to the next compound to report its relative viability.
For the compound CCNC(=O)c1noc(-c2cc(C(C)C)c(O)cc2O)c1-c1ccc(CN2CCOCC2)cc1 [Luminespib] + CC(=O)c1c(C)c2cnc(Nc3ccc(N4CCNCC4)cn3)nc2n(C2CCCC2)c1=O [Palbociclib] (partner 0.5 µM) , report relative viability.
0.204

----------
Tested on: NCI-H3122
Assay: relative viability (nuclei count vs DMSO), 5 days (fraction); higher = more cells survive
Settings: first compound 20 µM
metric: relative viability

Sample records with relative viability:
| molecule | reported result |
| --- | --- |
| Cc1csc(=NC2CCCCC2)n1/N=C/c1ccc(O)c(O)c1O [MIM1] + C[C@@H](Oc1cc(-c2cnn(C3CCNCC3)c2)cnc1N)c1c(Cl)ccc(F)c1Cl [Crizotinib] (partner 1 µM) | 0.204 |
| Cc1csc(=NC2CCCCC2)n1/N=C/c1ccc(O)c(O)c1O [MIM1] + CS(=O)(=O)N1CCN(Cc2cc3nc(-c4cccc5[nH]ncc45)nc(N4CCOCC4)c3s2)CC1 [Pictilisib] (partner 1 µM) | 0.394 |
| Cc1csc(=NC2CCCCC2)n1/N=C/c1ccc(O)c(O)c1O [MIM1] + NC(=O)Nc1cc(-c2cccc(F)c2)sc1C(=O)N[C@H]1CCCNC1 [AZD7762] (partner 0.2 µM) | 0.19 |

Attention now shifts to the item below.
Name the recorded relative viability of the molecule listed here: Cc1csc(=NC2CCCCC2)n1/N=C/c1ccc(O)c(O)c1O [MIM1] + O=C(CCCCCCC(=O)Nc1ccccc1)NO [Vorinostat] (partner 1 µM)
0.127

----------
System: NCI-H1793
Assay: relative viability (nuclei count vs DMSO), 5 days (fraction); higher = more cells survive
Settings: first compound 20 µM
metric: relative viability
Kindly provide the number alone.

Specify measured relative viability for Cc1csc(=NC2CCCCC2)n1/N=C/c1ccc(O)c(O)c1O [MIM1] + CC(=O)Nc1cccc(-n2c(=O)n(C3CC3)c(=O)c3c(Nc4ccc(I)cc4F)n(C)c(=O)c(C)c32)c1 [Trametinib] (partner 0.02 µM) .
0.408

Return reported relative viability. Input molecule: Cc1csc(=NC2CCCCC2)n1/N=C/c1ccc(O)c(O)c1O [MIM1] + Cc1nc(NC(=O)N2CCC[C@H]2C(N)=O)sc1-c1ccnc(C(C)(C)C(F)(F)F)c1 [Alpelisib] (partner 2 µM)
0.804

Supply relative viability value. Item: Cc1csc(=NC2CCCCC2)n1/N=C/c1ccc(O)c(O)c1O [MIM1] + CCNC(=O)c1noc(-c2cc(C(C)C)c(O)cc2O)c1-c1ccc(CN2CCOCC2)cc1 [Luminespib] (partner 0.01 µM)
0.138

Note relative viability for the molecule shown: Cc1csc(=NC2CCCCC2)n1/N=C/c1ccc(O)c(O)c1O [MIM1] + O=C(CCCCCCC(=O)Nc1ccccc1)NO [Vorinostat] (partner 1 µM)
0.553

Answer with the recorded relative viability of Cc1csc(=NC2CCCCC2)n1/N=C/c1ccc(O)c(O)c1O [MIM1] + CC1(C)CCC(c2ccc(Cl)cc2)=C(CN2CCN(c3ccc(C(=O)NS(=O)(=O)c4ccc(N[C@H](CCN5CCOCC5)CSc5ccccc5)c(S(=O)(=O)C(F)(F)F)c4)cc3)CC2)C1 [Navitoclax] (partner 0.5 µM) only.
0.47

Consider the molecule Cc1csc(=NC2CCCCC2)n1/N=C/c1ccc(O)c(O)c1O [MIM1] + N=C(N)NC(=N)NCCc1ccccc1 [Phenformin] (partner 250 µM) and give its recorded relative viability.
0.302

Where these numbers come from: the supplement of paper PMC10307832
